Values were extracted from patent US9475819B2.

Parameter 'readout' = Ki; parameter 'system' = human orexin 2 receptor (Homo sapiens (Human)).
Sequence (O43614 whole entry): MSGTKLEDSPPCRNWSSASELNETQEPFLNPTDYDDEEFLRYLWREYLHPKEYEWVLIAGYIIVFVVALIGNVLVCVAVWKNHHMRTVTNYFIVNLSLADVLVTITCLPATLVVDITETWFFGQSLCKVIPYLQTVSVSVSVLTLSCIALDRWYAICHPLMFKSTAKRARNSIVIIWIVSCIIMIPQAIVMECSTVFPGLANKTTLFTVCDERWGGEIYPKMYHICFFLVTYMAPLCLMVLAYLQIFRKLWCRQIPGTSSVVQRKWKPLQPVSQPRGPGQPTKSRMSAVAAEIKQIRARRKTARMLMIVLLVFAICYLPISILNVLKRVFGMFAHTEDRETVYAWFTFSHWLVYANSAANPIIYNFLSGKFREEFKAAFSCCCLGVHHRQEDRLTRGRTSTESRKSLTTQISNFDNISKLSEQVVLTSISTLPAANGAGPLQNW
quantity-kind: Ki

Cc1ccc(-n2nccn2)c(C(=O)N2C3CCC2C(Nc2ccc(C(F)(F)F)cn2)C3)n1 (racemic) [Example 187]	620 nM
Cc1ccc(-n2nccn2)c(C(=O)N2[C@H]3CC[C@@H]2[C@@H](COc2ccc(F)cn2)C3)c1 (single isomer, unassigned) [Example 10B]	5150 nM

====

subject-of-test: human orexin 1 receptor (Homo sapiens (Human), UniProt O43613)
Sequence (O43613 whole entry): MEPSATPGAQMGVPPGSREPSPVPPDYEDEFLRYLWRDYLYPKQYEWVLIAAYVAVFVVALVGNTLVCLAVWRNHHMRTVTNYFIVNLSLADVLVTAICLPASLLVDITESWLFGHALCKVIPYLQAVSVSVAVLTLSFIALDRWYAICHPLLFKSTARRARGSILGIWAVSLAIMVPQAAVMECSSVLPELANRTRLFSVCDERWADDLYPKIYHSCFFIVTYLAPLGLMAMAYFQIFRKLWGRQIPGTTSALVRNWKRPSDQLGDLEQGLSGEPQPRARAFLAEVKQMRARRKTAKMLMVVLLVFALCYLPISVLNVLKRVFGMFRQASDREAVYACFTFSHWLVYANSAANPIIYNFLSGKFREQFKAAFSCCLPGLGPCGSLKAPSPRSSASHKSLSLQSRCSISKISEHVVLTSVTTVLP
pKi: −log10 of the molar value.
quantity-kind: pKi

Cc1ccc(-n2nccn2)c(C(=O)N2C3CCC2C(Nc2ccc(C(F)(F)F)cn2)C3)n1 (racemic)	7.32
